Examples of compounds with documented t1/2 follow.
assay: Metabolic stability in human liver microsomes assessed as half life at 1 uM incubated upto 60 mins by LC-MS/MS analysis; type: ADME, Microsome; settings: 1 h
observation-type: t1/2

[[record]]
compound = "Cc1ccc(C(=O)N2CCN(c3ccccc3)CC2)cc1S(=O)(=O)N1CCOCC1"
observed_value = "6.6 min"

[[record]]
compound = "CC(=O)C(C)n1c(CN2CCN(c3cccc(Cl)c3)CC2)nc2c1c(=O)n(C)c(=O)n2C (configuration not stated)"
observed_value = "3.4 min"

[[record]]
compound = "Cc1cccn2c(=O)c3cc(C(=O)N[C@@H](C)c4ccccc4)c(N)[n+](CCOCCO)c3nc12"
observed_value = "97.6 min"

[[record]]
compound = "COc1ccc(OC)c(-c2csc(N3CCN(C(=O)c4ccco4)CC3)n2)c1"
observed_value = "23.6 min"

[[record]]
compound = "Cc1cc(C)c2nc(-c3ccncc3)cc(C(=O)NCCCn3ccnc3)c2c1"
observed_value = "4.7 min"

[[record]]
compound = "Nc1ccc(/N=N/c2cccc(F)c2F)c(N)n1"
observed_value = "< 2.3 min"

[[record]]
compound = "CCCCc1ccc(-n2nnc(C(=O)N(C)C3CCS(=O)(=O)C3)c2C)cc1 (configuration not stated)"
observed_value = "49.9 min"


###

Examples of molecules with documented MRT inf follow.
assay: MRT (infinity) in CD-1 mouse at 100 mg/kg, ip by LC-MS/MS analysis; assay type: ADME, organism-based; conditions: in vivo
observation-type: MRT inf

[[record]]
smiles = "CCCc1cc(C(=O)OC)c(NC(=O)C2CCN(C(C)=O)CC2)s1"
observed_value = "2.82 h"

[[record]]
smiles = "Nc1ccc(/N=N/c2cccc(F)c2F)c(N)n1"
observed_value = "2.06 h"


###

assay: Solubility of compound in PBS at pH 4; type: physicochemical; details: buffer
Criterion: solubility meeting or surpassing 50 µM. Met: y. Not met: n.

[[record]]
compound = "Cc1cccn2c(=O)c3cc(C(=O)N[C@@H](C)c4ccccc4)c(N)[n+](CCOCCO)c3nc12"
category_label = "y"

[[record]]
compound = "Cc1ccc(C(=O)N2CCN(c3ccccc3)CC2)cc1S(=O)(=O)N1CCOCC1"
category_label = "n"

[[record]]
compound = "CC(=O)C(C)n1c(CN2CCN(c3cccc(Cl)c3)CC2)nc2c1c(=O)n(C)c(=O)n2C (configuration not stated)"
category_label = "n"

[[record]]
compound = "CCCCc1ccc(-n2nnc(C(=O)N(C)C3CCS(=O)(=O)C3)c2C)cc1 (configuration not stated)"
category_label = "n"

[[record]]
compound = "Cc1cc(C)c2nc(-c3ccncc3)cc(C(=O)NCCCn3ccnc3)c2c1"
category_label = "y"

[[record]]
compound = "Nc1ccc(/N=N/c2cccc(F)c2F)c(N)n1"
category_label = "n"

[[record]]
compound = "COc1ccc(OC)c(-c2csc(N3CCN(C(=O)c4ccco4)CC3)n2)c1"
category_label = "n"


###

experiment: Half life in CD-1 mouse at 1 mg/kg, iv by LC-MS/MS analysis; type: ADME, organism-based; settings: CD-1, mouse, in vivo
observation-type: half-life (min)

[[record]]
smiles = "Nc1ccc(/N=N/c2cccc(F)c2F)c(N)n1"
unit_abbreviation = "min"
observed_value = 20.3

